Entries below carry reported pIC50 on MMP-9 (Homo sapiens).
Sequence (P14780 94-707, species assumed): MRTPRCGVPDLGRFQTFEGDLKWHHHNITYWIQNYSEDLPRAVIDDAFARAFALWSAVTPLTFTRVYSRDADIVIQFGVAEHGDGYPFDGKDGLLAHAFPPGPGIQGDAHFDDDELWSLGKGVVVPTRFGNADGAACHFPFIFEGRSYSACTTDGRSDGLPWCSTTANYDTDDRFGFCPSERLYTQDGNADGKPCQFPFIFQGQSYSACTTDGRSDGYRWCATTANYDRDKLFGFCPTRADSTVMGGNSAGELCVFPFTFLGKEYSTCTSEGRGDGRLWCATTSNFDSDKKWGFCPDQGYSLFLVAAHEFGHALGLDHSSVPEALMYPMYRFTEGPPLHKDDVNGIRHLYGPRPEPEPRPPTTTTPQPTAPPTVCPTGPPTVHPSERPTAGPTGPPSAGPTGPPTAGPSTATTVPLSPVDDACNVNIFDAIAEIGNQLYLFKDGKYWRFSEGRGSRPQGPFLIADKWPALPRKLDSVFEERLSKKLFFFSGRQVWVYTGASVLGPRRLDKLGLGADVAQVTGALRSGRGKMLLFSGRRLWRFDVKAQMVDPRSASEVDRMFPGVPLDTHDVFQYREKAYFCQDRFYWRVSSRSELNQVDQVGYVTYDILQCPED
pIC50: −log10 of the molar value.
parameterMeasured: pIC50

O=C(O)C(c1ccccc1)N(Cc1ccc(OCc2ccccc2)cc1)Cc1cccc(F)c1 (centres unmarked) :: 4.41
O=C(O)c1csc(CN(Cc2ccc(OCc3ccccc3)cc2)C(c2ccccc2)c2ccccc2)n1 :: 5.00
O=C(O)c1c[nH]c(CN(Cc2ccc(F)cc2)Cc2ccc(OCc3ccccc3)cc2)n1 :: 4.89

I. Cc1ccc(CN(Cc2ccc(OCc3ccccc3)cc2)Cc2nc(C(=O)O)c[nH]2)cc1
II. O=C(O)c1csc(CN(Cc2ccc(F)cc2)Cc2ccc(OCc3ccncc3)cc2)n1
Out of I and II , name the one with the higher pIC50. Respond using the label that marks the chosen record.
II
